Each recorded value in this set is attributed to PubChem BioAssay.

// viability lookup, one value per entry
ASSAY_METHOD_TEXT: viability of HCT116 without oncogenic beta-catenin – human colon tumor cells, pilot screen (AID 823);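 also: 0% = wells killed by 20 µM Hyamine and 100% = untreated DMSO cell wells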
MEASUREMENT_PARAMETERS: HCT116 beta-catenin knockout viability, CellTiter-Glo, 60 h; at 10 µM; hits give low values
Inconclusive results are not listed.
MEASURED_PROPERTY: viability (%)

[[record]]
smiles_data = "CCc1ccccc1S(=O)(=O)Cc1ccc(C(=O)N2CCN(c3ccccc3OC)CC2)o1"
display_unit = "%"
numeric_result = 37

[[record]]
smiles_data = "Brc1ccccc1-c1nnc(CSc2nnc3sc4ccccc4n23)o1"
display_unit = "%"
numeric_result = 96.1

[[record]]
smiles_data = "CCOc1ccccc1C(=O)Nc1ccc2nc(N3CCN(c4ncccn4)CC3)cc(C)c2c1"
display_unit = "%"
numeric_result = 4.33

[[record]]
smiles_data = "C=CCNc1ncnc2c1cnn2-c1ccc(Cl)cc1"
display_unit = "%"
numeric_result = 106

[[record]]
smiles_data = "COC(=O)CSc1nc2ccc(NC(=O)CSc3nnnn3Cc3ccccc3)cc2s1"
display_unit = "%"
numeric_result = 87.2

